test: DSSTox (CPDBAS) Carcinogenic Potency Database Summary MultiCellCall Results; conditions: animal carcinogenicity bioassays, multi-cell call summary
Active and inactive are the calls of the source.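 The calls were made as follows: active = tumour findings in long-term animal cancer tests in more than one sex, species or organ; inactive = no tumour finding and more than one negative test.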
Classes used: active, inactive

Compound	Qualitative Label
CC(C)Nc1nc(Cl)nc(NC(C)C)n1	inactive
NC(=O)/C(=C\c1ccc([N+](=O)[O-])o1)c1ccco1	active
Oc1c(Cl)cc(Cl)c(Cl)c1Cc1c(O)c(Cl)cc(Cl)c1Cl	inactive
CC(C)=CCl	active
ClCC(Cl)(Cl)Cl	active
CN(C)C(=S)S[Se](SC(=S)N(C)C)(SC(=S)N(C)C)SC(=S)N(C)C	inactive
CC(=O)CN(CC(O)CO)N=O (centres undefined)	active
CN(C)c1ccc(C(=O)c2ccc(N(C)C)cc2)cc1	active
C=Cc1ccccc1	active

###

assay: DSSTox (CPDBAS) Carcinogenic Potency Database Summary MultiCellCall Results; conditions: animal carcinogenicity bioassays, multi-cell call summary
Calls of active or inactive are those of the source.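 The calls were made as follows: active = tumour findings in long-term animal cancer tests in more than one sex, species or organ; inactive = no tumour finding and more than one negative test.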
Classes used: active, inactive

Compound	Qualitative Label
CCCCN(CCCC)N=O	active
ClCc1ccccn1	inactive
C=C/C=N/O	inactive
O=NN1CCCCC1c1cccnc1 (stereo not drawn)	active
OCC(CO)(CBr)CBr	active
c1ccc2c(c1)Oc1ccccc1O2	inactive
CCCCCCCCCCCN(C)N=O	active
CCCCNN	active
CCCCN(N=O)C(N)=O	active
CC(=O)C(N=Nc1ccc(-c2ccc(N=NC(C(C)=O)C(=O)Nc3ccccc3)c(Cl)c2)cc1Cl)C(=O)Nc1ccccc1 (stereo not drawn)	inactive
Cc1cc(N=Nc2ccccc2C)ccc1N	active
CC(C)OC(=O)COc1ccc(Cl)cc1Cl	inactive
C#C[C@]1(O)CC[C@H]2[C@@H]3CCC4=C(CCC(=O)C4)[C@H]3CC[C@@]21C	inactive

###

Test: DSSTox (CPDBAS) Carcinogenic Potency Database Summary MultiCellCall Results
Details: animal carcinogenicity bioassays, multi-cell call summary
From the text: The Carcinogenic Potency Database (CPDB) is a unique and widely used international resource of the results of over 6500 chronic, long-term animal cancer tests on over 1500 chemical substances. The CPDB provides easy access to the bioassay literature, with qualitative and quantitative analyses of both positive and negative experiments that have been published over the past 50 years in the general literature and by the National Cancer Institute/National Toxicology Program. […]
The source made the active and inactive calls.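 Rule for the calls: active = tumour findings in long-term animal cancer tests in more than one sex, species or organ; inactive = no tumour finding and more than one negative test.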
Classes used: label 1 for active, label 0 for inactive

Compound	Qualitative Label
CCN(N=O)C(=O)NCC(C)=O	label 1
C=CCN(N=O)C(N)=O	label 1
COP(=S)(OC)Oc1ccc(SC)c(C)c1	label 0
O=[N+]([O-])/C=C/c1ccccc1	label 0
CC[C@H]1OC(=O)[C@H](C)[C@@H](O[C@H]2C[C@@](C)(OC)[C@@H](O)[C@H](C)O2)[C@H](C)[C@@H](O[C@@H]2O[C@H](C)C[C@H](N(C)C)[C@H]2O)[C@](C)(O)C[C@@H](C)C(=O)[C@H](C)[C@@H](O)[C@]1(C)O	label 0
CNc1ncnc2c1ncn2[C@@H]1O[C@H](CO)[C@@H](O)[C@H]1O	label 0
NC1CCCCC1	label 0
O=C1NS(=O)(=O)c2ccccc21	label 0
CC1(C)S[C@@H]2[C@H](NC(=O)COc3ccccc3)C(=O)N2[C@H]1C(=O)O	label 0
C=CCOC(=O)CC(C)C	label 1
Cn1c(=O)c2[nH]cnc2n(C)c1=O	label 0
FC(F)(Cl)C(F)(Cl)Cl	label 0
C=COC(N)=O	label 1
CN(CC(O)CO)N=O (configuration not stated)	label 1
CCN(Cc1cccc(S(=O)(=O)O)c1)c1ccc(C(=C2C=CC(=[N+](CC)Cc3cccc(S(=O)(=O)O)c3)C=C2)c2ccc(O)cc2S(=O)(=O)[O-])cc1	label 0
S=C(NC1CCCCC1)NC1CCCCC1	label 0
C=C(C)C#N	label 0
COc1ccc(C(Cl)=C(c2ccc(OC)cc2)c2ccc(OC)cc2)cc1	label 0
O=S1OCC2C(CO1)C1(Cl)C(Cl)=C(Cl)C2(Cl)C1(Cl)Cl (configuration not stated)	label 0
Oc1ccc(Cl)cc1Cl	label 0
Clc1ccc(C(c2ccc(Cl)cc2)C(Cl)Cl)cc1	label 1
O=c1c(CO)c/c(=N/Nc2ccc(S(=O)(=O)O)c3ccccc23)c(=O)/c1=N/Nc1ccc(S(=O)(=O)O)c2ccccc12	label 0
C/[N+]([O-])=N/CO[C@@H]1O[C@H](CO)[C@@H](O)[C@H](O)[C@H]1O	label 1
Oc1ccccc1O	label 1
C[C@](N)(Cc1ccc(O)c(O)c1)C(=O)O	label 0
c1ccc2occc2c1	label 1
CN(C)CCN(Cc1ccco1)c1ccccn1	label 0
O=C([O-])C(=O)O.O=C([O-])C(=O)O.[K+].[K+].[O]=[Ti]	label 0
NC(=O)c1ccccc1C(N)=O	label 0
CCC[N+](=O)[O-]	label 0
COc1ccc(C)cc1N	label 1
CCN(CC)C(=S)S	label 0
CCCN(CCC)N=O	label 1
Nc1ccc(/C=C/c2ccc(N)cc2S(=O)(=O)O)c(S(=O)(=O)O)c1	label 0
Cc1cccn2c1nc1ccc(N)nc12	label 1
Cc1ccc(N=Nc2c(O)ccc3ccccc23)c([N+](=O)[O-])c1	label 1
CCc1cccc2c3c([nH]c12)C(CC)(CC(=O)O)OCC3 (configuration not stated)	label 0
Clc1ccc(-c2cccc(Cl)c2Cl)c(Cl)c1	label 1
NC(=O)N/N=C/c1ccc([N+](=O)[O-])o1	label 1
FC(F)OC(Cl)C(F)(F)F (configuration not stated)	label 0
CC=O	label 1
O=S(=O)(O)c1c(N=Nc2c(O)ccc3ccccc23)ccc2ccccc12	label 0

Values compiled from PubChem BioAssay AID1205.
